Values were extracted from BigSolDB 2.1.

details: in n-butanol, 313.15 K

mol	solubility (mole fraction)
COc1ccc2[nH]cc(CCNC(C)=O)c2c1	0.0328

---

details: in isobutanol, 293.15 K
measured attribute: solubility (mole fraction)

mol	measured number
COc1ccc2[nH]cc(CCNC(C)=O)c2c1	0.00972

---

settings: in ethanol, 303.15 K

mol	solubility (mole fraction)
COc1ccc2[nH]cc(CCNC(C)=O)c2c1	0.032

---

settings: in n-pentanol, 303.15 K
measured attribute: solubility (mole fraction)

mol	measured attribute	measured number
COc1ccc2[nH]cc(CCNC(C)=O)c2c1	solubility (mole fraction)	0.0184

---

conditions: in methyl acetate, 293.15 K

mol	solubility (mole fraction)
COc1ccc2[nH]cc(CCNC(C)=O)c2c1	0.00688

---

conditions: in methyl acetate, 308.15 K

mol	solubility (mole fraction)
COc1ccc2[nH]cc(CCNC(C)=O)c2c1	0.0144

---

conditions: in n-butanol, 323.15 K

mol	solubility (mole fraction)
COc1ccc2[nH]cc(CCNC(C)=O)c2c1	0.0536

---

conditions: in ethanol, 293.15 K

mol	solubility (mole fraction)
COc1ccc2[nH]cc(CCNC(C)=O)c2c1	0.02

---

details: in n-propanol, 283.15 K

mol	solubility (mole fraction)
COc1ccc2[nH]cc(CCNC(C)=O)c2c1	0.00792

---

details: in n-hexanol, 323.15 K

mol	solubility (mole fraction)
COc1ccc2[nH]cc(CCNC(C)=O)c2c1	0.0393

---

settings: in n-propanol, 293.15 K

mol	solubility (mole fraction)
COc1ccc2[nH]cc(CCNC(C)=O)c2c1	0.0147

---

conditions: in n-hexanol, 308.15 K
measured attribute: solubility (mole fraction)

mol	measured attribute	result
COc1ccc2[nH]cc(CCNC(C)=O)c2c1	solubility (mole fraction)	0.019

---

conditions: in ethanol, 283.15 K

mol	solubility (mole fraction)
COc1ccc2[nH]cc(CCNC(C)=O)c2c1	0.0113

---

conditions: in n-hexanol, 313.15 K

mol	solubility (mole fraction)
COc1ccc2[nH]cc(CCNC(C)=O)c2c1	0.0244

---

settings: in isobutanol, 288.15 K

mol	solubility (mole fraction)
COc1ccc2[nH]cc(CCNC(C)=O)c2c1	0.0073
